Listing of recorded Potency by entry.
Tested on: CP329
Experiment: qHTS profiling for inhibitors of Plasmodium falciparum proliferation (AID 504749); also: potency is read from the fitted curve at half-maximal effect; nearly all actives have a fitted effect of over 60% in size
Settings: P. falciparum in erythrocytes, SYBR Green DNA, 72 h; series mostly up to 28.7 µM
Inconclusive results are not listed. The source made the active and inactive calls. Calls follow the shape of the dose curve; as a rule, active = well fitted inhibition curve with a large enough effect; inconclusive = small, poorly fitted or top-dose-only effect; inactive = flat fitted curve, though single readings scatter.

>>> experimental_result("CCCCCCCCCCCCCC[N+](C)(C)C")
"5.36 µM (active)"
>>> experimental_result("CCCCCCCCCCCCCCCC[n+]1ccccc1")
"7.57 µM (active)"

Attention now shifts to the item below.
Value wanted: Potency (CP329) of entry `CCCCCCCCCCCCCCCC[N+](C)(C)Cc1ccccc1`
10.7 µM (active)

###

Test: qHTS assay for measurement of the activity of small molecule inhibitors on Zika virus induced Caspase-3 activity in human astrocytoma cells (AID 1224859);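 also: plate controls were ZIKV-infected untreated cells for no effect and uninfected cells for full effect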
Conditions: SNB-19 ZIKV-induced caspase-3/7, luminescence, 6 h; series mostly up to 45.7 µM
Active and inactive are the calls of the source. Calls follow the shape of the dose curve; as a rule, active = well fitted inhibition curve with a large enough effect; inconclusive = small, poorly fitted or top-dose-only effect; inactive = no such curve, though single readings can be large or run the other way.
READOUT NAME: activity change, negative = inhibition

>>> experimental_result("CN(C)CCN(Cc1ccsc1)c1ccccn1")
"inactive"
>>> experimental_result("C[C@H](N)C(=O)N[C@@H](C)C(=O)NC1[C@H]2CN(c3nc4c(cc3F)c(=O)c(C(=O)O)cn4-c3ccc(F)cc3F)C[C@@H]12 (stereo not given in full)")
"inactive"
>>> experimental_result("N#C/C(=C1/SC[C@@H](c2ccc(Cl)cc2Cl)S1)n1ccnc1")
"inactive"
>>> experimental_result("O=C(Nc1ccc(Cl)cc1)Nc1ccc(Cl)c(C(F)(F)F)c1")
"inactive"

Entry `O=C(O)c1cn(C2CC2)c2cc(Cl)c(F)cc2c1=O` : reported activity change, negative = inhibition = ?
inactive

###

Test system: MCC-13
Test: qHTS assay to identify novel small-molecules to repurpose for Merkel cell carcinoma treatment (AID 1296009); also: nearly all actives have a fitted effect of over 60% in size
Settings: MCC and control cell lines, CellTiter-Glo viability, 72 h; series mostly up to 46 µM
Results filed as inconclusive are left out. Calls of active or inactive are those of the source. The call rests on the fitted dose curve; in most records, active means well fitted inhibition curve with a large enough effect; inconclusive means small, poorly fitted or top-dose-only effect; inactive means flat fitted curve, though single readings scatter.
Lab note: assign the record to one of active, inactive

Recorded test call requested for `COc1cc2c(cc1OC)CN(C(=O)[C@H](C)N[C@@H](CCc1ccccc1)C(=O)O)[C@H](C(=O)O)C2`
inactive

So what was the verdict on C1=CC2C3C=CC(C3)C2C1 (configuration not stated) in this test?
inactive

For this compound, state the assay outcome: CCCCCC1Nc2cc(C(F)(F)F)c(S(N)(=O)=O)cc2S(=O)(=O)N1 (configuration not stated)
inactive

# lookup: test call for `COc1ccc2c(c1)CCCC2=O`
inactive

Assay result, entry `CCOC(=O)C(=O)CCCCCCl` — outcome?
inactive

Look up the recorded call for `CCC(CN)=C(c1ccccc1)c1ccccc1` in this test.
inactive

Assay result, entry `CN1C(=O)c2ccccc2C1=O` — outcome?
inactive

// return assay outcome for `O=C1CC(c2ccc(Cl)cc2)CC(=O)N1`
inactive

// return assay outcome for CC(C)(C)C1CCC(CC2=C(O)c3ccccc3C(=O)C2=O)CC1 (configuration not stated)
inactive

Which result was noted for this compound in the test: `N[C@@H](Cc1cc(I)c(O)c(I)c1)C(=O)O`
inactive

What did the test return for `Nc1cccc2c(N)cccc12` ?
active

// outcome(item) with item = `CC(C)=CCC/C(C)=C/CC/C(C)=C/CCC(=O)OC/C=C(\C)CCC=C(C)C`
inactive

###

Assay: qHTS of pediatric cancer cell lines to identify multiple opportunities for drug repurposing: Primary screen for BT-37 cells (AID 1347094)
Details: BT-37 viability, CellTiter-Glo luminescence, 48 h; series mostly up to 57.3 µM
Results filed as inconclusive are left out. Calls of active or inactive are those of the source. The call rests on the fitted dose curve; in most records, active means well fitted cell-killing curve with a large enough effect; inconclusive means small, poorly fitted or top-dose-only effect; inactive means flat fitted curve, though single readings scatter. Where a SMILES comes first, the peptide text is derived from it. [ ]: non-standard residue; d: D form. pGlu = O=C1CC[C@@H](C(=O)O)N1
Mark one answer only. Choices: yes (1) for active, no (0) for inactive

Observe how each entry below is paired with its result.
>>> group("CC(=O)OC/C=C(C)/C=C/C=C(C)/C=C/C1=C(C)CCCC1(C)C")
"no (0)"
>>> group("CCNC(=O)[C@@H]1CCCN1C(=O)[C@H](CCCN=C(N)N)NC(=O)[C@H](CC(C)C)NC(=O)CNC(=O)[C@H](Cc1ccc(O)cc1)NC(=O)[C@H](CO)NC(=O)[C@H](Cc1c[nH]c2ccccc12)NC(=O)[C@H](Cc1cnc[nH]1)NC(=O)[C@@H]1CCC(=O)N1 ([pGlu]HWSYGLRP-NHEt)")
"no (0)"
>>> group("CC(=O)OC[C@H]1O[C@@H](OC(C)=O)[C@H](OC(C)=O)[C@@H]1OC(C)=O")
"no (0)"
>>> group("N#CC1(c2ccc(F)cc2)CCC(=O)CC1")
"no (0)"
>>> group("C1N2CN3CN1CN(C2)C3")
"no (0)"

Short answer needed: outcome of this test for O=C(C1CCCCC1)N1CC(=O)N2CCCc3ccccc3C2C1 (stereo unspecified) ?
no (0)

Assay outcome for `COc1c(C)c2c(c(O)c1C/C=C(\C)CCC(=O)OCCN1CCOCC1)C(=O)OC2` : what was it?
yes (1)

Record lookup: outcome of this test for CC(=O)/C=C/C=C1/C2CCC(C2)C1(C)C (stereo unspecified) ?
no (0)

Name the outcome recorded for `CCOC(=O)C(=O)c1csc(NC=O)n1` in the assay.
no (0)

Please indicate how the test categorized `Nc1nc2ccccc2n1Cc1ccc(F)cc1` .
no (0)

How did this test come out for `CCOC(=O)c1cc(=O)c2c(OCC(COc3cccc4oc(C(=O)OCC)cc(=O)c34)OC(=O)[C@@H](N)CCCCN)cccc2o1` ?
no (0)

###

Experiment: qHTS of pediatric cancer cell lines to identify multiple opportunities for drug repurposing: Primary screen for MG 63 (6-TG R) cells (AID 1347105); also: % is scaled to controls: 0 for no effect and ±100 for the full control effect; nearly all actives have a fitted effect of over 50% in size
Conditions: MG 63 (6-TG R) viability, CellTiter-Glo, 48 h; series mostly up to 46 µM
Results filed as inconclusive are left out. Active and inactive are the calls of the source. Calls come from the whole dose curve; as a rule, active = well fitted cell-killing curve with a large enough effect; inconclusive = small, poorly fitted or top-dose-only effect; inactive = no such curve, though single readings can be large or run the other way.
READOUT NAME: outcome

Consider the reported outcome for these molecules:
>>> experimental_result("CC(=O)N(CC(=O)N(C)C)c1ccccc1")
"inactive"
>>> experimental_result("CO[C@@H]1[C@@H](O[C@@H]2O[C@H](C)[C@@H](O[C@H]3C[C@@](C)(O)[C@@H](O)[C@H](C)O3)[C@H](N(C)C)[C@H]2O)[C@@H](CC=O)C[C@@H](C)[C@@H](O[C@@H]2CC[C@H](N(C)C)[C@@H](C)O2)/C=C/C=C/C[C@@H](C)OC(=O)C[C@H]1OC(C)=O")
"inactive"
>>> experimental_result("COc1cc(OC)nc(O[C@H](C(=O)O)C(OC)(c2ccccc2)c2ccccc2)n1")
"inactive"
>>> experimental_result("CCOC(=O)C(=O)c1csc(NC=O)n1")
"inactive"

# lookup: outcome of `CC(=O)CC/C=C(\C)CC/C=C(\C)CC/C=C(\C)CCC=C(C)C`
inactive

Suppose we examine the molecule COCCc1ccc(OCC2CO2)cc1 (stereo unspecified) ; what outcome value has been reported?
inactive

Entry `COc1ccc2cc(C=O)ccc2c1` : reported outcome = ?
inactive

# lookup: outcome of `Oc1ccccc1-c1nnco1`
inactive

###

Measured activity, negative = cell killing, listed per entry for reference.
Assay: Drug repurposing screens with cells derived from glioblastoma tumor samples (AID 1345199); also: % is scaled to controls: 0 for no effect and ±100 for the full control effect; nearly all actives have a fitted effect of over 40% in size
Details: GBM patient neurospheres viability, ATP luminescence, 48 h; at 45.9 µM (top of the series); tumour line D
Results filed as inconclusive are left out.
Number only, in %; omit the unit.

Example entries and their recorded answers appear below.
>>> experimental_result("CCCCC(=O)OCC(=O)[C@H]1[C@H](C)C[C@H]2[C@@H]3C[C@H](F)C4=CC(=O)C=C[C@]4(C)[C@@]3(F)[C@@H](O)C[C@@]21C")
-9.99
>>> experimental_result("CCO[C@H](Cc1ccc(OCCc2ccc(OS(C)(=O)=O)cc2)cc1)C(=O)O")
-11.2
>>> experimental_result("CCCC(=O)O[C@]1(C(=O)COC(=O)CC)CC[C@H]2[C@@H]3CCC4=CC(=O)CC[C@]4(C)[C@H]3[C@@H](O)C[C@@]21C")
-7.61
>>> experimental_result("CN(C(=O)C(Cl)Cl)c1ccc(OC(=O)c2ccco2)cc1")
-16.9
>>> experimental_result("O=S(=O)(O)c1ccc2nc(-c3ccccc3)[nH]c2c1")
-9.15

GET /values?readout=activity, negative = cell killing&item= `OC[C@]1(O)OC[C@@H](O)[C@H](O)[C@@H]1O`
-1.03

activity, negative = cell killing for `O=C(Oc1ccccc1)c1ccccc1O` ?
13.5

If you can, please state the reported activity, negative = cell killing value of `O=C1CC[C@H](C(=O)N2CCCCC2)N1` .
0.144

Could you tell me which activity, negative = cell killing is on file for Cn1cc(S(C)=O)c(=O)c2ccc(F)cc21 (configuration not stated) ?
-4.06

Param item = `O=C(c1ccccc1)c1ccccc1` ; retrieve measured activity, negative = cell killing.
8.55

Would you mind telling me what activity, negative = cell killing value was observed for `C[C@]12CCC(=O)C=C1CC[C@@H]1[C@@H]2[C@@H](O)C[C@@]2(C)[C@H]1CC[C@]2(O)C(=O)COC(=O)CCC(=O)O` ?
-26.6

Give its activity, negative = cell killing value. Item: `CCN1CCN(C(=O)N[C@@H](C(=O)N[C@@H]2C(=O)N3[C@@H]2SC(C)(C)[C@H]3C(=O)O)c2ccccc2)C(=O)C1=O`
-1.23

Name the recorded activity, negative = cell killing for `NC(N)=NCCCCN=C(N)N` .
-4.71

For `CN1CCC(=C2c3ccccc3CCc3cccnc32)CC1` , what is its reported activity, negative = cell killing?
-28.7

Data request, read-out activity, negative = cell killing, for `O=C(CCCCC(=O)Nc1c(I)cc(I)c(C(=O)O)c1I)Nc1c(I)cc(I)c(C(=O)O)c1I`
-19.2

Report activity, negative = cell killing for `O=[N+]([O-])c1nccn1CO[C@@H](CO)[C@H](O)CO` please.
-7.16

What activity, negative = cell killing value was documented for this molecule, CC(C)(C)C(=O)OCOC(=O)C1N2C(=O)CC2S(=O)(=O)C1(C)C (configuration not stated) ?
-8.54

Can you share its activity, negative = cell killing? I mean this molecule: `Nc1c[n+](N2CCOCC2)no1`
-1.79

Query (molecule): `CC(C)(C)c1nnc(NS(=O)(=O)c2ccccc2)s1` ; field requested: activity, negative = cell killing
-22.3

# input molecule: CN1[C@@H]2CC[C@H]1CC(NC(=O)n1c(=O)[nH]c3ccccc31)C2 (some centres not stated) ; wanted: its activity, negative = cell killing
-10.2

Could you share which activity, negative = cell killing value was measured for `O=C(O)Cc1ccc(OCCNC[C@H](O)c2ccccc2)cc1` ?
5.34

Consider the molecule shown here: COc1cc(C(=O)NC2CCCNC2)cc(OC)c1OC (configuration not stated) What is its recorded activity, negative = cell killing?
-10.6
